B1: SMG5 (parent)
chain: TRKLSPGKKRCKDIKRLLVNFMYL

variants of: B1; experiment: protein stability index of a GFP-peptide fusion (GPS, HEK-293T) (PSI 1-6); higher = more stable; settings: c terminus: a fixed tail appended;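 note: lentivirally expressed fusions sorted by FACS into six bins by GFP to DsRed ratio, PSI derived from sequencing read proportions per bin multiplied by bin number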
Classification field. Basis: protein stability index. Definitions: band 1 = under 2, band 2 = from 2 up to 3, band 3 = 3 and over

Consider the worked cases shown below.
SEQUENCE CODE	GROUP LABEL
TRKLSPGKKRCKYIKRLLVNFMYL [D13Y]	band 1
TRKLSPGKKRCKDIKRLLVNGMYL [F21G]	band 1
TRKLLPGKKRCKDIKRLLVNFMYL [S5L]	band 1
TRKLSPGKKRCKDIKRLLVNFMYH [L24H]	band 1
TRKLSPGKKRCKDIKRELVNFMYL [L17E]	band 1

Kindly state the category for this variant: TRKLSPGKKRCKKIKRLLVNFMYL [D13K]
band 2

Kindly state the category for this variant: TRGLSPGKKRCKDIKRLLVNFMYL [K3G]
band 3

Kindly state the category for this variant: TNKLSPGKKRCKDIKRLLVNFMYL [R2N]
band 1

Kindly state the category for this variant: TRKLSPGKKRCKDIKRHLVNFMYL [L17H]
band 1

Kindly state the category for this variant: TRKLSPGKGRCKDIKRLLVNFMYL [K9G]
band 1

Kindly state the category for this variant: TRKLSPGKKRCKDIKRFLVNFMYL [L17F]
band 3

Kindly state the category for this variant: TRKLSVGKKRCKDIKRLLVNFMYL [P6V]
band 3

Kindly state the category for this variant: TRKRSPGKKRCKDIKRLLVNFMYL [L4R]
band 1

Values compiled from the supplement of paper PMC10567573.
